Examples of variants with documented protein stability index follow.
B1: ZNF263 (parent)
chain: PEASHLRFRRFRFQEAAGPREALS

variants of: B1; experiment: protein stability index of a GFP-peptide fusion (GPS, HEK-293T) (PSI 1-6); higher = more stable; settings: c terminus: a fixed tail appended;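 further: lentivirally expressed fusions sorted by FACS into six bins by GFP to DsRed ratio, PSI derived from sequencing read proportions per bin multiplied by bin number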
API note: the answer field is a bare number with no unit suffix.

Consider the following illustrative entries.
> print(dat)
                     sequenceentry  observedmeasurement
1  PEASHLRFRRFRFLEAAGPREALS [Q14L]                 3.22
2  PEASHLRFRRFRFQVAAGPREALS [E15V]                 2.12
3  PEASHLRFRRFRFIEAAGPREALS [Q14I]                 1.78
4  PEASHLRFRRFRFQEAAGPREALG [S24G]                  2.3
5  PEASHLRFRRFRFQEAAGPREALR [S24R]                 2.69

Fill blank: measured protein stability index of the variant PEASHLRFRRFRFQEAAGGREALS [P19G] is ____. 3.11

Fill blank: measured protein stability index of the variant PEASDLRFRRFRFQEAAGPREALS [H5D] is ____. 3.21

Fill blank: measured protein stability index of the variant PEASHLYFRRFRFQEAAGPREALS [R7Y] is ____. 2.36

Fill blank: measured protein stability index of the variant PEASHLRFRRFRKQEAAGPREALS [F13K] is ____. 4.07
